# system under test: SARS-CoV-2 spike protein, B1.1.7 (alpha variant), borne on lentiviral pseudovirus (SARS-CoV-2, B1.1.7)
# test name: cell-based or functional assay
quantity kind: Pseudo Neut, B1.1.7 IC50 (pM)
Quick reminder: number only, in pM, skip the unit.

antibody 2729 (antibody, V domains shown) VH: QVTLKESGPVLVKPTETLTLTCTVSGFSLSNARMGVSWIRQPPGKALEWLAHIFSNDEKSYSTYLKSRLTISKDSSKSQVVLTMTIMDPVDTATYYCARTAGRYSSRWGHYYYYMDVWGKGTTVTVSS VL: NFMLTQPHSVSESPGKTVTISCTGSNGSIASNFMQWYQQRPGSAPTIVIYEDNQRPSGVPDRFSGSIDGSSNSASLTISGLKTEDEADYYCQSYDSSDSDLGVFGGGTKLTVL :: 93

Next up:
What value of Pseudo Neut, B1.1.7 IC50 (pM) has been recorded for this entry: antibody 1872 (antibody, V domains shown) VH: EVQLVESGGGLVKPGGSLRLSCAASGFSFSLYTMNWVRQAPGKGLEWVSYISSSSSYRYYADSVKGRFSVSRDNAKNALYLQMNGLRAEDTAVYYCARDGYCPRGVCTYYGMDVWGQGTTVTVSA VL: EIVMTQSPATLSVSPGERATLSCRASQSVGSRLAWYQQKPGQAPRLLIYDATIRATGIPARFSGSGSGTDFTLTISGLQSEDFAVYYCQRYNNWPPAYTFGQGTKLEIK
130
